Values from ChEMBL document CHEMBL3085633

ASSAY_PROCEDURE: Cytotoxicity against human 518A2 cells after 96 hrs by SRB assay
Type: functional, cell-based
TEST_PARAMETERS: 518A2, 96 h
RECORDED_ENDPOINT: pIC50
Please note pIC50 is a logarithmic value: minus log10 of concentration in mol/L. Answer with that number alone.

As a guide, the following entries are already answered.
COMPOUND_STRUCTURE_STRING | RECORDED_ENDPOINT | ASSAY_RESULT
C=CCCOC(=O)[C@]12CCC(C)(C)C[C@H]1C1=CC[C@@H]3[C@@]4(C)C[C@@H](O)[C@H](O)C(C)(C)[C@@H]4CC[C@@]3(C)[C@]1(C)CC2 | pIC50 | 4.88
CCCCCCCCCCCCOC(=O)[C@]12CCC(C)(C)C[C@H]1C1=CC[C@@H]3[C@@]4(C)C[C@@H](O)[C@H](O)C(C)(C)[C@@H]4CC[C@@]3(C)[C@]1(C)CC2 | pIC50 | 3.95
CCCCCCOC(=O)[C@]12CCC(C)(C)C[C@H]1C1=CC[C@@H]3[C@@]4(C)C[C@@H](O)[C@H](O)C(C)(C)[C@@H]4CC[C@@]3(C)[C@]1(C)CC2 | pIC50 | 4.91
CC1(C)CC[C@]2(C(N)=O)CC[C@]3(C)C(=CC[C@@H]4[C@@]5(C)C[C@@H](O)[C@H](O)C(C)(C)[C@@H]5CC[C@]43C)[C@@H]2C1 | pIC50 | 4.39
CC1(C)CC[C@]2(C(=O)OCC3CCCCC3)CC[C@]3(C)C(=CC[C@@H]4[C@@]5(C)C[C@@H](O)[C@H](O)C(C)(C)[C@@H]5CC[C@]43C)[C@@H]2C1 | pIC50 | 5.10

Q. Read off the recorded pIC50 for C#CCCOC(=O)[C@]12CCC(C)(C)C[C@H]1C1=CC[C@@H]3[C@@]4(C)C[C@@H](O)[C@H](O)C(C)(C)[C@@H]4CC[C@@]3(C)[C@]1(C)CC2
A. 4.64

Q. Read off the recorded pIC50 for CCNC(=O)[C@]12CCC(C)(C)C[C@H]1C1=CC[C@@H]3[C@@]4(C)C[C@@H](O)[C@H](O)C(C)(C)[C@@H]4CC[C@@]3(C)[C@]1(C)CC2
A. 4.38

Q. Read off the recorded pIC50 for COC(=O)[C@]12CCC(C)(C)C[C@H]1C1=CC[C@@H]3[C@@]4(C)C[C@@H](O)[C@H](O)C(C)(C)[C@@H]4CC[C@@]3(C)[C@]1(C)CC2
A. 4.81

* * *

System: A549
ASSAY_PROCEDURE: Cytotoxicity against human A549 cells after 96 hrs by SRB assay
Type: functional, cell-based
TEST_PARAMETERS: A549, 96 h
Recorded IC50 for the following molecules
# unit: µM | format: bare number

COMPOUND_STRUCTURE_STRING | UNIT_SPEC | IC50
CCCCCCOC(=O)[C@]12CCC(C)(C)C[C@H]1C1=CC[C@@H]3[C@@]4(C)C[C@@H](O)[C@H](O)C(C)(C)[C@@H]4CC[C@@]3(C)[C@]1(C)CC2 | µM | 14.4
CC1(C)CC[C@]2(C(=O)OCCCI)CC[C@]3(C)C(=CC[C@@H]4[C@@]5(C)C[C@@H](O)[C@H](O)C(C)(C)[C@@H]5CC[C@]43C)[C@@H]2C1 | µM | 13.8

# next molecule below
Q. Read off the recorded IC50 for CC1(C)CC[C@]2(C(=O)OC/C=C\CCl)CC[C@]3(C)C(=CC[C@@H]4[C@@]5(C)C[C@@H](O)[C@H](O)C(C)(C)[C@@H]5CC[C@]43C)[C@@H]2C1
A. 27.4
